assay: growth suppression of beta-catenin knockout HCT116, pilot screen, human colon tumor cells (AID 823); conditions: CellTiter-Glo, 60 h, at 10 µM, active compounds read low;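 note: 0% = wells killed by 20 µM Hyamine and 100% = untreated DMSO cell wells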
Records with an inconclusive call do not appear.
The entries below are paired with their reported viability.

| compound | unit | viability |
| --- | --- | --- |
| COc1cc(SC)ccc1C(=O)Nc1ccc2c(c1)OCCO2 | % | 67.1 |
| CCOC(=O)CN1CC23C=CC(O2)C(C(=O)N2CCN(c4ccc(F)cc4)CC2)C3C1=O (stereo not drawn) | % | 86.7 |
| N#CCCCSc1nnc(-c2ccc(Cl)cc2)n1-c1ccccc1 | % | 83 |
